Cited source: patent US9409952B2

- methodNotes: Metabolic stability in mouse hepatic microsome
- Format: in vitro ADME
- appliedConditions: 0.5 mg protein/mL, 1 uM, 30 minutes, without NADPH
Positions of bridges follow the written chain, without caps; N, C: chain ends. Non-standard residues stand in square brackets, D forms with d. Residues, ends and D or L forms follow the SMILES beside them. ξ: configuration not given here. *: point of attachment. NMeF = CN[C@@H](Cc1ccccc1)C(=O)O; NMeI = CC[C@H](C)[C@H](NC)C(=O)O; NMeL = CN[C@@H](CC(C)C)C(=O)O; NMeA = CN[C@@H](C)C(=O)O; Piperidide = C1CCN(*)CC1; ξC = NC(CS)C(=O)O; Sar = CNCC(=O)O; tBu = CC(C)(C)*
Assign class by Hepatic Microsome CLh, int (Mouse) In the absence of NADPH: not lower than 10 ul/min/mg Protein means 1.0; lower than 10 ul/min/mg Protein means 0.0.

compound="CC[C@H](C)[C@H]1C(=O)N[C@H](C(=O)N2CCCCC2)CSCC(=O)N(C)[C@@H](C)C(=O)N(C)[C@@H](Cc2ccccc2)C(=O)N(C)[C@@H](CC(C)C)C(=O)N[C@@H]([C@@H](C)O)C(=O)N(C)CC(=O)N(C)[C@@H](CC(C)C)C(=O)N[C@@H](COC(C)(C)C)C(=O)N1C [Compound P-109] ({CH2CO}-[NMeA][NMeF][NMeL]T[Sar][NMeL]S(tBu)[NMeI]C-Piperidide; thioether N-9)" group=1.0
compound="CC[C@H](C)[C@H]1C(=O)NC(C(=O)N2CCCCC2)CSCC(=O)N(C)[C@@H](Cc2ccccc2)C(=O)N(C)[C@@H](C)C(=O)N(C)[C@@H](Cc2ccccc2)C(=O)N(C)[C@@H](CC(C)C)C(=O)N[C@@H]([C@@H](C)O)C(=O)N(C)CC(=O)N(C)[C@@H](CC(C)C)C(=O)N[C@@H](COC(C)(C)C)C(=O)N1C (stereo partly drawn) [Compound P-112] ({CH2CO}-[NMeF][NMeA][NMeF][NMeL]T[Sar][NMeL]S(tBu)[NMeI][ξC]-Piperidide; thioether N-10)" group=1.0
compound="CC(C)C[C@H]1C(=O)N[C@@H](COC(C)(C)C)C(=O)N[C@H](C(=O)N2CCCCC2)CSCC(=O)N(C)[C@@H](C)C(=O)N[C@@H](Cc2ccccc2)C(=O)N(C)[C@@H](CC(C)C)C(=O)N[C@@H]([C@@H](C)O)C(=O)N(C)CC(=O)N1C [Compound P-106] ({CH2CO}-[NMeA]F[NMeL]T[Sar][NMeL]S(tBu)C-Piperidide; thioether N-8)" group=0.0
compound="CC(C)C[C@H]1C(=O)N[C@@H](COC(C)(C)C)C(=O)N[C@H](C(=O)N2CCCCC2)CSCC(=O)N(C)[C@@H](C)C(=O)N(C)[C@@H](Cc2ccccc2)C(=O)N(C)[C@@H](CC(C)C)C(=O)N[C@@H]([C@@H](C)O)C(=O)N(C)CC(=O)N1C [Compound P-102] ({CH2CO}-[NMeA][NMeF][NMeL]T[Sar][NMeL]S(tBu)C-Piperidide; thioether N-8)" group=0.0
compound="CC[C@H](C)[C@H]1C(=O)N[C@H](C(=O)N2CCCCC2)CSCC(=O)N(C)[C@@H](Cc2ccccc2)C(=O)N(C)[C@@H](CC(C)C)C(=O)N[C@@H]([C@@H](C)O)C(=O)N(C)CC(=O)N(C)[C@@H](CC(C)C)C(=O)N[C@@H](COC(C)(C)C)C(=O)N1C [Compound P-103] ({CH2CO}-[NMeF][NMeL]T[Sar][NMeL]S(tBu)[NMeI]C-Piperidide; thioether N-8)" group=1.0
